Origin of values: paper PMC6468299

- Test system: Caki-1 (kidney)
- methodNotes: Cytotoxicity, sulforhodamine B assay, Caki-1
- Format: cell-based, human
- details: Caki-1, Galactose media, day 11

{"compound": "Nc1nc2c(ncn2[C@@H]2O[C@H](CO)[C@@H](O)[C@H]2F)c(=O)[nH]1 [2′-F-G, 2′-F-guanosine]", "CC50 [µM]": 30}

----------
- methodNotes: Cytotoxicity, sulforhodamine B assay, Caki-1
- Type: cell-based, human
- details: human, Caki-1 cells (kidney), CC50, Caki-1, Glucose media, day 11
As shown below, each of these compounds has a reported CC50 at 11 days value.

{"smilesRecord": "CC(C)OC(=O)[C@H](C)N[P@](=O)(OC[C@H]1O[C@@H](n2ccc(=O)[nH]c2=O)[C@](C)(F)[C@@H]1O)Oc1ccccc1", "CC50 at 11 days": "> 250 µM"}
{"smilesRecord": "Nc1ccn([C@H]2CC[C@@H](CO)O2)c(=O)n1", "CC50 at 11 days": "> 20 µM"}

----------
- assayTarget: Human mitochondrial RNA polymerase (POLRMT) (Homo sapiens, UniProt O00411)
- Sequence (O00411 42-1230): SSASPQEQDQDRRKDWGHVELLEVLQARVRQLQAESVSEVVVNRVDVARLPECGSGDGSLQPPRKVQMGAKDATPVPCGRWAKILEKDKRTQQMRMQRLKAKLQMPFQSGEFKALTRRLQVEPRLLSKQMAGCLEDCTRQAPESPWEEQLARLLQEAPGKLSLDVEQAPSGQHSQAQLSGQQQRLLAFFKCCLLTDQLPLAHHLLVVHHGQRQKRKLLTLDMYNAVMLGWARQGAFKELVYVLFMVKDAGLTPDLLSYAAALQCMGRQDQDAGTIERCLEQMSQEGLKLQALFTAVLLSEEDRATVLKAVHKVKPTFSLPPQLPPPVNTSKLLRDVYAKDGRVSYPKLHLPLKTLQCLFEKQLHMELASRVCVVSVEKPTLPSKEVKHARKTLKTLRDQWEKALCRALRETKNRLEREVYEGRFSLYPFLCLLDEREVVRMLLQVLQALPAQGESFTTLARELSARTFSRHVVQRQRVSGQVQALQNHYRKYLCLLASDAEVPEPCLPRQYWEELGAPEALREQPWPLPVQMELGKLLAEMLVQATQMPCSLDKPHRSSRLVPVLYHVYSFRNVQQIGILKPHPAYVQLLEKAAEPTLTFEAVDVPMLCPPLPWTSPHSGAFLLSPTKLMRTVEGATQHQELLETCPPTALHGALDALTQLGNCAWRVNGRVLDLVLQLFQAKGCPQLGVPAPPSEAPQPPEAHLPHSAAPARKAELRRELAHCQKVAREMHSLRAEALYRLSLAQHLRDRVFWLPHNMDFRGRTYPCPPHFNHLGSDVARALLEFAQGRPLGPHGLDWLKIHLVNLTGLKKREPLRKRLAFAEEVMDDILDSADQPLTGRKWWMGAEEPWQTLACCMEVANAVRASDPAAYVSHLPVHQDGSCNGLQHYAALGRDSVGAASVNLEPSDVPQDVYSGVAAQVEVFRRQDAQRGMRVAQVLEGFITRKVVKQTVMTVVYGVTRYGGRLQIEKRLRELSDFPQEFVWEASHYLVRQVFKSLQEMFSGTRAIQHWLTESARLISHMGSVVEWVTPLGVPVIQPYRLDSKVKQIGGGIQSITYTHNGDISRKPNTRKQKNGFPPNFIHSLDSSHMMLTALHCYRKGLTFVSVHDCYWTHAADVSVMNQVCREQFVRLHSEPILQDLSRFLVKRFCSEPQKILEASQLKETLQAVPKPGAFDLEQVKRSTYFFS
- methodNotes: POLRMT primer extension
- Format: biochemical
- details: Native:F ratio 1:1
Marks after values point to notes of the source that are not given here.

{"compound": "Nc1nc2c(ncn2[C@@H]2O[C@H](COP(=O)(O)OP(=O)(O)OP(=O)(O)O)[C@@H](O)[C@H]2F)c(=O)[nH]1", "assayTarget": "Human mitochondrial RNA polymerase (POLRMT) (Homo sapiens, UniProt O00411)", "% Native product": "96.4^a %"}
{"compound": "Nc1ccn([C@@H]2O[C@H](COP(=O)(O)OP(=O)(O)OP(=O)(O)O)[C@@H](O)[C@H]2F)c(=O)n1", "assayTarget": "Human mitochondrial RNA polymerase (POLRMT) (Homo sapiens, UniProt O00411)", "% Native product": "39.3^a %"}
{"compound": "O=c1ccn([C@@H]2O[C@H](COP(=O)(O)OP(=O)(O)OP(=O)(O)O)[C@@H](O)[C@H]2F)c(=O)[nH]1", "assayTarget": "Human mitochondrial RNA polymerase (POLRMT) (Homo sapiens, UniProt O00411)", "% Native product": "32^a %"}
{"compound": "O=c1[nH]c(=O)n([C@@H]2O[C@H](COP(=O)(O)OP(=O)(O)OP(=O)(O)O)[C@@H](O)[C@@H]2F)cc1I [FIAU-TP, fialuridine triphosphate, reference compound]", "assayTarget": "Human mitochondrial RNA polymerase (POLRMT) (Homo sapiens, UniProt O00411)", "% Native product": "25.1^a %"}
{"compound": "Nc1ncnc2c1ncn2[C@@H]1O[C@H](COP(=O)(O)OP(=O)(O)OP(=O)(O)O)[C@@H](O)[C@H]1F", "assayTarget": "Human mitochondrial RNA polymerase (POLRMT) (Homo sapiens, UniProt O00411)", "% Native product": "67.8^a %"}

----------
- methodNotes: Cytotoxicity, sulforhodamine B assay, COLO 205
- Format: cell-based, human
- details: human, COLO 205 cells (intestine), CC50, COLO 205, Glucose media, day 11
As shown below, each of these molecules has a reported CC50 at 11 days value.

{"smilesRecord": "CC(C)OC(=O)[C@H](C)N[P@](=O)(OC[C@H]1O[C@@H](n2ccc(=O)[nH]c2=O)[C@](C)(F)[C@@H]1O)Oc1ccccc1", "comparator": "=", "CC50 at 11 days [µM]": 155}
{"smilesRecord": "Nc1ccn([C@H]2CC[C@@H](CO)O2)c(=O)n1", "comparator": ">", "CC50 at 11 days [µM]": 20}

----------
- Assay type: in vivo, Sprague Dawley rats
- details: rat heart; ALN-TTRSC02 (ESC), single 30 mg/kg sc
parameterMeasured: Cmax

{"smilesRecord": "Nc1nc2c(ncn2[C@@H]2O[C@H](CO)[C@@H](O)[C@H]2F)c(=O)[nH]1", "parameterMeasured": "Cmax", "endpointResult": "< 500 nM"}

----------
- assayTarget: Human mitochondrial RNA polymerase (POLRMT) (Homo sapiens)
- methodNotes: POLRMT primer extension
- Assay type: biochemical
- details: Native:F ratio 1:100
Marks after values point to notes of the source that are not given here.
As shown below, each of these compounds has a reported % 2′-F product value.

{"compound": "Nc1nc2c(ncn2[C@@H]2O[C@H](COP(=O)(O)OP(=O)(O)OP(=O)(O)O)[C@@H](O)[C@H]2F)c(=O)[nH]1 [2′-F-GTP]", "% 2′-F product": "8.9^b %"}
{"compound": "O=c1[nH]c(=O)n([C@@H]2O[C@H](COP(=O)(O)OP(=O)(O)OP(=O)(O)O)[C@@H](O)[C@@H]2F)cc1I [FIAU-TP, fialuridine triphosphate, reference compound]", "% 2′-F product": "1.1^b %"}
{"compound": "Nc1ccn([C@@H]2O[C@H](COP(=O)(O)OP(=O)(O)OP(=O)(O)O)[C@@H](O)[C@H]2F)c(=O)n1 [2′-F-CTP]", "% 2′-F product": "9.1^b %"}

----------
- methodNotes: Cytotoxicity, sulforhodamine B assay, COLO 205
- Assay type: cell-based, human
- details: human, COLO 205 cells (intestine), CC50, COLO 205, Galactose media, day 11

{"compound": "Nc1ccn([C@H]2CC[C@@H](CO)O2)c(=O)n1 [ddC, 2′,3′-Dideoxycytidine]", "comparator": ">", "CC50 at 11 days (µM)": 20}
{"compound": "CC(C)OC(=O)[C@H](C)N[P@](=O)(OC[C@H]1O[C@@H](n2ccc(=O)[nH]c2=O)[C@](C)(F)[C@@H]1O)Oc1ccccc1 [SOF, Sofosbuvir]", "comparator": "=", "CC50 at 11 days (µM)": 123}

----------
- methodNotes: Cytotoxicity, sulforhodamine B assay, SkMC
- Type: cell-based, human
- details: human, SkMC cells (muscle), CC50, SkMC, Galactose media, day 11
As shown below, each of these compounds has a reported CC50 at 11 days value.
parameterMeasured: CC50 at 11 days

{"smilesRecord": "Nc1ccn([C@H]2CC[C@@H](CO)O2)c(=O)n1", "endpointResult": "> 20 µM"}
{"smilesRecord": "CC(C)OC(=O)[C@H](C)N[P@](=O)(OC[C@H]1O[C@@H](n2ccc(=O)[nH]c2=O)[C@](C)(F)[C@@H]1O)Oc1ccccc1", "endpointResult": "> 250 µM"}

----------
- assayTarget: human mitochondrial DNA polymerase γ (Pol-γ exo-mutant) (Homo sapiens, UniProt P54098, D198A/E200A)
- Sequence (P54098 26-1239 D198A/E200A limits assumed): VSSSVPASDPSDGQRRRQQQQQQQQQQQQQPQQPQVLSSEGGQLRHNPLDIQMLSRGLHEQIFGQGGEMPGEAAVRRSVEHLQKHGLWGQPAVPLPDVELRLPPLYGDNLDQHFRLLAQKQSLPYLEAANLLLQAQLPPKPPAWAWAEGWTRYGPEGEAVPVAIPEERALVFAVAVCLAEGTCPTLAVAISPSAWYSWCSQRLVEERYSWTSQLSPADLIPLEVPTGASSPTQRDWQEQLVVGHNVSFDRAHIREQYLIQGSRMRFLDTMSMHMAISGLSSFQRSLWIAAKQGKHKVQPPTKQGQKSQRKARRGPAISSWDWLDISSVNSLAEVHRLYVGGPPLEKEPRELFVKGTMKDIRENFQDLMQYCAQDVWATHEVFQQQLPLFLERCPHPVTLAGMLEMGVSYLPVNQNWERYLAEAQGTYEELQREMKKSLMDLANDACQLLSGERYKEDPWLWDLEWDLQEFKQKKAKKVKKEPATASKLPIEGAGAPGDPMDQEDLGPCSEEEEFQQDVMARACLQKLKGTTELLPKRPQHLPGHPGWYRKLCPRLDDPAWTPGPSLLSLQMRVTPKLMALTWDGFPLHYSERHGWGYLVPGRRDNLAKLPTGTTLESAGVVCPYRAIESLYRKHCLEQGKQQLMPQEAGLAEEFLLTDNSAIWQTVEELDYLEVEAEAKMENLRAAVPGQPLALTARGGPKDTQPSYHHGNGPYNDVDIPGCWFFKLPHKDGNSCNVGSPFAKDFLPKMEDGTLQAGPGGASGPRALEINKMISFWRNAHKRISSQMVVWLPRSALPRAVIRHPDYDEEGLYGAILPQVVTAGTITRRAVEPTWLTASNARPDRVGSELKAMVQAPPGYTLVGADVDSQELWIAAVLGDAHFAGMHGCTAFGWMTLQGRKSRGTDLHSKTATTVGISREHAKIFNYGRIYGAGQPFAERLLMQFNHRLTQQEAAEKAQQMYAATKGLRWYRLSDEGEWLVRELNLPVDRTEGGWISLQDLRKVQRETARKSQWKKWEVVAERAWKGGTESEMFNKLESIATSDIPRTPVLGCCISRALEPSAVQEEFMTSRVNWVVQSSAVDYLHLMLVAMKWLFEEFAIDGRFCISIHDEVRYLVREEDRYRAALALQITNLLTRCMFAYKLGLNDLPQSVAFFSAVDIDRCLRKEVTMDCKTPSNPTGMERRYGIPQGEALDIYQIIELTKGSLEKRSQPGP
- methodNotes: Pol-γ primer extension
- Type: biochemical
- details: Native:F ratio 1:10
Marks after values point to notes of the source that are not given here.

{"smilesRecord": "Nc1ncnc2c1ncn2[C@@H]1O[C@H](COP(=O)(O)OP(=O)(O)OP(=O)(O)O)[C@@H](O)[C@H]1F", "% Native product": "97.1^a %"}
{"smilesRecord": "Nc1nc2c(ncn2[C@@H]2O[C@H](COP(=O)(O)OP(=O)(O)OP(=O)(O)O)[C@@H](O)[C@H]2F)c(=O)[nH]1", "% Native product": "88.9^a %"}
{"smilesRecord": "O=c1ccn([C@@H]2O[C@H](COP(=O)(O)OP(=O)(O)OP(=O)(O)O)[C@@H](O)[C@H]2F)c(=O)[nH]1", "% Native product": "90.0^b %"}
{"smilesRecord": "Nc1ccn([C@@H]2O[C@H](COP(=O)(O)OP(=O)(O)OP(=O)(O)O)[C@@H](O)[C@H]2F)c(=O)n1", "% Native product": "90.6^b %"}
